ASSAY NOTES: chemical genetic growth profiling, strain panel (AID 1159580);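 also: tested at 20 µM; growth read once vehicle control cultures reached saturation at 30 °C; 1 = growth at the plate median or of vehicle wells; lower values mean less growth of the strain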
CONDITION DETAILS: S. cerevisiae deletion strains, growth OD, locus YNL071W, strain lat1
About 2,000 (36%) of roughly 5,500 compounds were called active. Not shown: some 18% with an inconclusive outcome. Rule as the data show it: active = normalized growth mostly below about 0.91 (no sharp cut-off); inconclusive = no clear call, values can overlap the other calls; inactive = mostly above about 0.92. This is one part of the list.
Please reply with one of these outcomes: active, inactive

Solved cases (5 shown):
{"COMPOUND": "O=C(CCCN1CCC2(CC1)C(=O)NCN2c1ccccc1)c1ccc(F)cc1", "LABEL": "inactive"}
{"COMPOUND": "NC[C@@H]1O[C@H](O[C@@H]2[C@@H](CO)OC(O[C@@H]3[C@@H](O)[C@H](N)C[C@H](N)[C@H]3O[C@H]3O[C@H](CO)[C@@H](O)[C@H](O)[C@H]3N)[C@@H]2O)[C@H](N)[C@@H](O)[C@@H]1O (stereo not given in full)", "LABEL": "inactive"}
{"COMPOUND": "C=CCSSCC=C", "LABEL": "inactive"}
{"COMPOUND": "CC1(C)[C@@H]2CC[C@@]1(C)C(=O)C2", "LABEL": "inactive"}
{"COMPOUND": "CCCc1nc(C)c2c(=O)[nH]c(-c3cc(S(=O)(=O)N4CCN(CC)CC4)ccc3OCC)nn12", "LABEL": "inactive"}

Could you please tell me the result logged for CCc1ccc2c(O)c3c(cc2c1C(=O)OC)C(=O)c1c(O)ccc(O)c1C3=O in this assay?
inactive

Could you please tell me the result logged for C=CCSSSCC=C in this assay?
active

---

What normalized growth was measured for each of the following?
ASSAY NOTES: chemical genetic growth profiling, strain panel (AID 1159580)
CONDITION DETAILS: S. cerevisiae deletion strains, growth OD, locus YJL092W, strain hpr5, hits give low values
The campaign covered roughly 5,500 compounds. About 2,000 (36%) were called active. Inconclusive results (about 18%) are left out. The list shows a part of the results.
Numbers only.

{"COMPOUND": "COc1nc(NC(C)C)nc(NC(C)C)n1", "OBSERVED": 1.02}

Can you give me normalized growth for all of these, one by one?
1. CN(C)C(=O)C(CCN1CCC(O)(c2ccc(Cl)cc2)CC1)(c1ccccc1)c1ccccc1
2. CC1(C)[C@@H]2CC[C@@]1(C)C(=O)C2
3. COC(=O)C(N)CS (stereo unspecified)
4. CCC(=O)NCC[C@@H]1CCc2ccc3c(c21)CCO3
5. CN(C)CC[C@H](c1ccc(Cl)cc1)c1ccccn1
6. C[C@H]1[C@H](C)CC[C@]2(C(=O)O)CC[C@]3(C)C(=CCC4[C@@]5(C)C[C@@H](O)[C@H](O)[C@@](C)(CO)C5CC[C@]43C)[C@H]12 (stereo partly specified)
7. NCCCN

1: 0.994; 2: 1.01; 3: 0.995; 4: 1.01; 5: 1.01; 6: 1.04; 7: 0.969

Can you give me normalized growth for all of these, one by one?
1. CC(C)Nc1nc(Cl)nc(NC(C)C)n1
2. NC[C@H]1O[C@H](OC2[C@@H](N)C[C@@H](N)[C@H](O[C@H]3O[C@H](CO)[C@@H](O)[C@H](N)[C@H]3O)[C@H]2O)[C@H](O)[C@@H](O)[C@@H]1O (stereo partly specified)
3. O=C(O)CCc1nc(-c2ccccc2)c(-c2ccccc2)o1

[0.995, 1, 0.949]

---

ASSAY NOTES: chemical genetic growth profiling, strain panel (AID 1159580);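 also: tested at 20 µM; growth read once vehicle control cultures reached saturation at 30 °C; 1 = growth at the plate median or of vehicle wells; lower values mean less growth of the strain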
CONDITION DETAILS: S. cerevisiae deletion strains, growth OD, locus YNL250W, strain rad50
About 2,000 (36%) of roughly 5,500 compounds were called active. Another 18% or so got no clear call; they are omitted. Rule as the data show it: active = normalized growth mostly below about 0.91 (no sharp cut-off); inconclusive = no clear call, values can overlap the other calls; inactive = mostly above about 0.92. The list shows a part of the results.
Please reply with one of these outcomes: yes (1) for active, no (0) for inactive

{"COMPOUND": "NCC(O)CC(=O)O (stereo unspecified)", "LABEL": "no (0)"}

Could you please tell me the result logged for CC(=O)N1CCN(c2ccc(OCC3CO[C@](Cn4ccnc4)(c4ccc(Cl)cc4Cl)O3)cc2)CC1 (stereo partly specified) in this assay?
yes (1)

Could you please tell me the result logged for Nc1ccc(S(=O)(=O)Nc2ncccn2)cc1 in this assay?
no (0)

Could you please tell me the result logged for CC1CCCC(C)N1NC(=O)c1ccc(Cl)c(S(N)(=O)=O)c1 (stereo unspecified) in this assay?
no (0)

Could you please tell me the result logged for CCCc1nn(C)c2c(=O)[nH]c(-c3cc(S(=O)(=O)N4CCN(C)CC4)ccc3OCC)nc12 in this assay?
no (0)

Could you please tell me the result logged for Cc1c(OCC(F)(F)F)ccnc1CS(=O)c1nc2ccccc2[nH]1 (stereo unspecified) in this assay?
no (0)

---

ASSAY NOTES: chemical genetic growth profiling, strain panel (AID 1159580);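 also: tested at 20 µM; growth read once vehicle control cultures reached saturation at 30 °C; 1 = growth at the plate median or of vehicle wells; lower values mean less growth of the strain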
CONDITION DETAILS: S. cerevisiae deletion strains, growth OD, locus YKL193C, strain SDS22, hits give low values
The whole screen tested about 5,500 compounds, of which about 2,000 (36%) were called active. Roughly 18% stayed inconclusive and do not appear here. The list shows a part of the results.
What normalized growth was measured for each of the following?
Numbers only.

Examples from the recorded data:
{"MOLECULE": "N#Cc1nccnc1N1CCN(C(=O)Nc2cc(Cl)cc(Cl)c2)CC1", "ENDPOINT LABEL": "normalized growth", "OBSERVED": 0.961}
{"MOLECULE": "Cc1cc(-c2onc(C)c2C(=O)Sc2ccccc2)no1", "ENDPOINT LABEL": "normalized growth", "OBSERVED": 0.942}
{"MOLECULE": "O=c1[nH][nH]c(=O)n1CCCc1cc2cccc3ccc4cccc1c4c32", "ENDPOINT LABEL": "normalized growth", "OBSERVED": 0.992}

Can you give me normalized growth for all of these, one by one?
1. N#C/C(N=Cc1cc(Cl)cc(Cl)c1O)=C(\C#N)N=Cc1cc(Cl)cc(Cl)c1O
2. N/C(=N/OC(=O)c1ccc([N+](=O)[O-])cc1)c1c(Cl)cccc1Cl
3. O=C1Nc2ccccc2/C1=C\c1c[nH]c2ccccc12
4. O=C(NNc1cc(C(F)(F)F)cc(C(F)(F)F)c1)c1cnc2n(c1=O)CCS2
5. Clc1cccc(Cl)c1C1CC(c2ccccc2)=Nc2ccccc2S1 (stereo not drawn)
6. O=C(O/N=C1/CCCc2[nH]c3ccccc3c21)C1CCCCC1
7. O=C(O/N=C1/CCCc2[nH]c3ccccc3c21)c1ccc(Cl)cc1Cl
8. CC1(C)C=Cc2cc(/C(N)=N\OC(=O)Nc3cccc(C(F)(F)F)c3)ccc2O1

1. 0.922
2. 0.935
3. 0.618
4. 0.986
5. 0.991
6. 0.97
7. 0.969
8. 0.979

---

ASSAY NOTES: chemical genetic growth profiling, strain panel (AID 1159580);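 also: tested at 20 µM; growth read once vehicle control cultures reached saturation at 30 °C; 1 = growth at the plate median or of vehicle wells; lower values mean less growth of the strain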
CONDITION DETAILS: S. cerevisiae deletion strains, growth OD, locus YHR079C, strain IRE1 (second series), hits give low values
The campaign covered roughly 5,500 compounds. About 2,000 (36%) were called active. Roughly 18% stayed inconclusive and do not appear here. This is one part of the list.
ENDPOINT LABEL: normalized growth
Give bare numbers.

Examples from the recorded data:
{"COMPOUND": "COc1cc(C)c2c(=O)c3c(O)cc(OC)cc3oc2c1", "normalized growth": 0.977}
{"COMPOUND": "COc1ccc(-c2cc(=O)c3c(O)cc(O)cc3o2)cc1O", "normalized growth": 0.983}
{"COMPOUND": "NCCCCN", "normalized growth": 1}

Can you give me normalized growth for all of these, one by one?
1. COc1cc(C(=O)N2CCOCC2)cc(OC)c1OC
2. COP(N)(=O)SC (configuration not stated)
3. NC[C@@H]1O[C@H](O[C@@H]2[C@@H](CO)OC(O[C@@H]3[C@@H](O)[C@H](N)C[C@H](N)[C@H]3O[C@H]3O[C@H](CO)[C@@H](O)[C@H](O)[C@H]3N)[C@@H]2O)[C@H](N)[C@@H](O)[C@@H]1O (some centres not stated)
4. O=C(O)c1cc(O)ccc1O
5. C[C@H]1OC(O[C@H]2[C@@H](O)CC(O[C@H]3[C@@H](O)C[C@H](O[C@H]4CC[C@]5(C)C6CC[C@]7(C)[C@@H](C8=CC(=O)OC8)[C@@H](O)C[C@]7(O)[C@@H]6CC[C@@H]5C4)O[C@@H]3C)O[C@@H]2C)C[C@H](O)C1O (some centres not stated)
6. CC(C)(C)NCC(O)COc1cccc2c1C[C@H](O)[C@H](O)C2 (some centres not stated)
7. CC(=O)[C@@]1(O)CCC2C3C=C(Cl)C4=CC(=O)[C@@H]5CC5[C@]4(C)C3CC[C@@]21C (some centres not stated)
8. CC(=O)Oc1ccccc1C(=O)Oc1ccccc1C(=O)O

1. 0.578
2. 1.02
3. 0.993
4. 0.986
5. 0.998
6. 0.987
7. 1.02
8. 0.983

Can you give me normalized growth for all of these, one by one?
1. Cc1c(C(N)=O)cc([N+](=O)[O-])cc1[N+](=O)[O-]
2. CCOC(=O)C1=C(O)C(=O)N(Cc2ccccc2)C1
3. COC(=O)[C@H]1[C@H]2C[C@H]3c4[nH]c5cc(OC)ccc5c4CCN3C[C@H]2C[C@@H](OC(=O)c2cc(OC)c(OC)c(OC)c2)[C@@H]1OC

1: 0.984; 2: 1.02; 3: 0.982

Can you give me normalized growth for all of these, one by one?
1. O=C(O)c1ccccc1O
2. C[C@]12CCC(=O)C=C1CCc1ccc(O)cc12
3. CC1CCCC(C)N1NC(=O)c1ccc(Cl)c(S(N)(=O)=O)c1 (configuration not stated)
4. CC1=CC(=O)C2C(C)(C)CCC[C@]2(C)[C@@]1(O)CCc1ccoc1 (some centres not stated)
5. CC[C@@]1(O)C(=O)OCc2c1cc1n(c2=O)Cc2cc3ccccc3nc2-1
6. COc1ccccc1N1CCN(CCCNc2cc(=O)n(C)c(=O)n2C)CC1
7. CC1Cc2ccccc2N1NC(=O)c1ccc(Cl)c(S(N)(=O)=O)c1 (configuration not stated)

[1.02, 0.989, 0.985, 0.972, 0.801, 1, 0.994]

Can you give me normalized growth for all of these, one by one?
1. NC(=O)c1ccccc1O
2. CC[C@@]1(O)C(=O)OCc2c1cc1n(c2=O)Cc2cc3cc(O)ccc3nc2-1
3. CO[C@H]1[C@H](O)[C@@H](O[C@H]2CC[C@]3(C=O)C4CC[C@]5(C)[C@@H](C6=CC(=O)OC6)CC[C@]5(O)C4CC[C@@H]3C2)O[C@@H](C)[C@@H]1O (some centres not stated)

[1.02, 0.981, 0.99]
